- Tested on: SF-268 CNS
- test: NCI-60 one-dose screen, 48 h (100 = growth as untreated, 0 = no growth, -100 = all killed)
- condition.notes: 10 µM unless noted
The panel holds about 83,000 compounds, 20% with a hit somewhere; the sample as a whole holds those more often.
Rule: yes (1) for growth not less than 50%, no (0) for anything less.

[[record]]
compound = "NC(=O)c1cccc(N2Cc3ccccc3OC3=C2C(=O)c2c(O)ccc(O)c2C3=O)c1"
assigned_category = "no (0)"


Assess whether reported growth for CCN1C(=S)N(CC)C2Nn3c(s/c(=C4\C(=O)N(C)c5ccccc54)c3=O)=NC21 (centres undefined) sits at 50% or higher.
yes (1)

Assess whether reported growth for O=C(COc1ccccc1)N1N=C(c2ccc(Cl)cc2)CC1c1c[nH]c2ccccc12 (centres undefined) sits at 50% or higher.
yes (1)

Assess whether reported growth for `COc1ccc(C(=O)/C=C/c2cc(C(=O)c3cc(OC)c(OC)c(OC)c3)ccc2OC)cc1` sits at 50% or higher.
yes (1)

Assess whether reported growth for `Cc1cc(C)c(S(=O)(=O)N2CCN(c3cc4c(cc3F)c(=O)c(C(=O)O)cn4C3CC3)CC2)c(C)c1` sits at 50% or higher.
yes (1)

Assess whether reported growth for COc1cc(/C=C2\CCCC3=C2N=C2SC(C)=NN2C3c2cc(OC)c(OC)c(OC)c2)cc(OC)c1OC (centres undefined) sits at 50% or higher.
no (0)

Assess whether reported growth for `Nc1c(C(=O)Nc2cccc(C(F)(F)F)c2)sc2nc3c(cc12)CCCCCC3` sits at 50% or higher.
no (0)

Assess whether reported growth for CCCCOc1nc2c(C)cccc2cc1C1CNC(=O)c2ccccc2N1 (centres undefined) sits at 50% or higher.
yes (1)

Assess whether reported growth for `O=C(Nc1ccc(F)cc1)c1cc([N+](=O)[O-])ccc1O` sits at 50% or higher.
yes (1)

---

# growth annotations
- Test system: MCF7 breast
- test: NCI-60 one-dose screen, 48 h (100 = growth as untreated, 0 = no growth, -100 = all killed)
- condition.notes: 10 µM unless noted
Compounds without any hit were thinned out: in the full panel of roughly 83,000, 20% have a hit.
Quick note: give the figure in %, leave out the unit.

Worked examples, 5 molecules total:
[[record]]
molecule = "Cc1sc2nc(CSc3nnc(-c4ccco4)o3)[nH]c(=O)c2c1C"
target_system = "MCF7 breast"
unit_tag = "%"
endpoint_value = 104

[[record]]
molecule = "O=C(C[N+](=O)[O-])c1ccc(Cl)cc1"
target_system = "MCF7 breast"
unit_tag = "%"
endpoint_value = 100

[[record]]
molecule = "CCN(C(=O)c1cc2ccccc2[nH]1)[C@H]1CCC[C@@H](NCc2ccc(OC)cc2)C1"
target_system = "MCF7 breast"
unit_tag = "%"
endpoint_value = 84

[[record]]
molecule = "COc1cc(C2C=C(C)N=C3SC=C(C)N32)cc(OC)c1OC (centres undefined)"
target_system = "MCF7 breast"
unit_tag = "%"
endpoint_value = -14.8

[[record]]
molecule = "C=C1C(=O)O[C@H]2[C@H]1CC/C(COC(=O)NCCc1cccc(OC)c1)=C\\CC[C@@]1(C)O[C@@H]21"
target_system = "MCF7 breast"
unit_tag = "%"
endpoint_value = 14.7


Entry `O=c1oc2cc(OS(=O)(=O)c3ccc(F)cc3)ccc2c2c1CCCCC2` — recorded growth = 59.9

Entry `C/C(=C\c1csc(C)n1)[C@@H]1C[C@@H]2O[C@]2(C)CCC[C@H](C)[C@H](O)[C@@H](C)C(=O)C(C)(C)[C@@H](O)CC(=O)N1` — recorded growth = -82.1

Entry O=c1cc(C2NCCc3c2[nH]c2ccccc32)c2c(ccc3ccccc32)o1 (centres undefined) — recorded growth = 81.8

Entry `COc1ccc2c(c1)C(=O)/C(=C/c1ccc(O)cc1)O2` — recorded growth = 22.8

---

- Tested on: RPMI-8226 leukemia
- test: NCI-60 one-dose screen, 48 h (100 = growth as untreated, 0 = no growth, -100 = all killed)
- condition.notes: 10 µM unless noted
About 83,000 compounds went through this panel and 20% of them were active in at least one assay; those are over-represented in the sample as a whole. Activity calls are given as the source filed them. How the source made its calls: active means growth percent below 10; inactive means the rest.
# growth annotations

Worked examples, 3 molecules total:
[[record]]
molecule = "O=S(=O)(NCCCNc1cc(-c2cn(-c3ccccc3)nc2-c2cccc(O)c2)ccn1)c1cccc2ccccc12"
measured_metric = "growth"
endpoint_value = "7.85% (active)"

[[record]]
molecule = "CCN(Cc1ccccc1)c1ccc(SC#N)cc1"
measured_metric = "growth"
endpoint_value = "80.3% (inactive)"

[[record]]
molecule = "COc1cc(-c2n[nH]nc2-c2ccc3c(c2)OCCO3)cc(OC)c1OC"
measured_metric = "growth"
endpoint_value = "0.653% (active)"


Note: attention shifts to another entry.
Entry CCCCCCCCCCCCCCCCC(Br)C(=O)O (centres undefined) — recorded growth = 84.6% (inactive)

---

- System: ACHN renal
- test: NCI-60 one-dose screen, 48 h
- condition.notes: 10 µM unless noted
- Protocol: Growth inhibition of the ACHN human tumor cell line is measured as a screen for anti-cancer activity. Cells are grown in 96 well plates and exposed to the test compound for 48 hours. Compounds are tested at a single concentration, which is 10^-5 M for most compounds. The reported endpoint is percent growth (GI% or GIPRCNT), where numbers from 0 - 100% represent growth inhibition, and numbers from -100% - 0 represent cell death. For example, a value of 40 represents 60% growth inhibition. […]
About 83,000 compounds went through this panel and 20% of them were active in at least one assay; those are over-represented in the sample as a whole. Calls of active or inactive are those of the source. The calls were made as follows: active = growth percent below 10; inactive = the rest.
Give one outcome, nothing more. List: true (1) = active, false (0) = inactive

[[record]]
molecule = "CCO/C=N/NC(=O)c1ccncc1"
assigned_category = "false (0)"

[[record]]
molecule = "COc1ccc(-c2nc3sccn3c2-c2ccnc(NCCCNS(=O)(=O)c3ccc(C)cc3)n2)cc1"
assigned_category = "false (0)"

[[record]]
molecule = "Nc1c(C(=O)Nc2cccc([N+](=O)[O-])c2)sc2nc3c(cc12)C(O)CCC3 (stereo not given)"
assigned_category = "false (0)"

[[record]]
molecule = "COc1ccc(C2=NN(c3ccc(S(N)(=O)=O)cc3)C(c3cn(-c4ccccc4)nc3-c3ccc(Cl)cc3)C2)cc1 (stereo not given)"
assigned_category = "false (0)"

[[record]]
molecule = "CC(Cc1nnc(SCC(=O)Nc2ccc(I)cc2)n1N)c1ccccc1 (stereo not given)"
assigned_category = "false (0)"


# lookup: test call for `C=C1C(=O)O[C@H]2[C@H](O)[C@@H](C)CCC/C(C)=C/CC[C@@]3(C)O[C@@H]3C[C@@H]12`
false (0)

# lookup: test call for `O=c1[nH]c(CN2CCN(c3ccccc3F)CC2)nc2sc3c(c12)CCC3`
false (0)

# lookup: test call for COc1ccc(C2SCC(=O)N2NC(=O)c2ccc(NC(=O)c3ccccn3)cc2)cc1OC (stereo not given)
false (0)

# lookup: test call for CCN1C(=O)N(CC)C2C1NN=c1s/c(=C3\C(=O)N(C4CCCC4)c4ccccc43)c(=O)n12 (stereo not given)
false (0)

# lookup: test call for `CCC(=O)Nc1ccccc1C#C/C=C\C#Cc1ccccc1SC`
false (0)

# lookup: test call for CC(Br)C(O)c1cc2c(cc1Br)OCO2 (stereo not given)
false (0)

# lookup: test call for `CCn1cc(C(=O)O)c(=O)c2cc(F)c(N3CCN(S(=O)(=O)c4ccc(Cl)cc4Cl)CC3)cc21`
true (1)

# lookup: test call for `CC(C)(C)OC(=O)N[C@@H](Cc1ccccc1)C(=O)N(Cc1ccccc1)C1(C(=O)NCc2ccccc2)CCN(Cc2ccccc2)CC1`
false (0)

# lookup: test call for `Nc1c(C(=O)Nc2c(Cl)cccc2Cl)sc2nc3c(cc12)CCCCC3`
false (0)

# lookup: test call for `O=c1oc2cc(OS(=O)(=O)c3ccc(F)cc3)ccc2c2c1CCCCC2`
false (0)

# lookup: test call for `O=C(CNc1c(Cl)cccc1Cl)Nc1ccc(-c2nc3ccccc3s2)cc1`
false (0)

# lookup: test call for `COc1ccc(/C=C/c2nc(N3CCOCC3)c3nc(Cl)c(Cl)cc3n2)cc1OC`
false (0)

# lookup: test call for `c1ccc(CCn2nnc3c(Nc4ccc(N5CCOCC5)cc4)ncnc32)cc1`
false (0)

# lookup: test call for `CCNC(=O)CCCCC(=O)c1c(C)[nH]c(/C=C2\N=C(c3ccc[nH]3)C=C2OC)c1C`
true (1)

# lookup: test call for `ClC1=C(Cl)C(Cl)=C(Cl)C1=Cc1ccc(Cl)cc1Cl`
true (1)

# lookup: test call for Cc1ccc2c(c1)C(C)Cc1c(N(C)C)ncnc1N2C (stereo not given)
false (0)

---

- Test system: SR leukemia
- test: NCI-60 one-dose screen, 48 h
- condition.notes: 10 µM unless noted
About 83,000 compounds went through this panel and 20% of them were active in at least one assay; those are over-represented in the sample as a whole. Activity calls are given as the source filed them. The calls were made as follows: active = growth percent below 10; inactive = the rest.
Give one outcome, nothing more. List: TRUE (active), FALSE (inactive)

[[record]]
compound = "C=CCn1c(C)nc2ccc(Nc3nc(Nc4ccc(F)cc4)nc4ccccc34)cc21"
assigned_category = "FALSE"

[[record]]
compound = "O=[N+]([O-])c1ccc(S(=O)(=O)N2CCN(c3ccnc4cc(Cl)ccc34)CC2)c([N+](=O)[O-])c1"
assigned_category = "TRUE"

[[record]]
compound = "COc1ccc(/C=C(\\C#N)c2ccc([N+](=O)[O-])cc2)c2ccccc12"
assigned_category = "FALSE"

[[record]]
compound = "COc1cccc(-c2nc3sccn3c2-c2ccnc(NCCCNS(=O)(=O)c3ccccc3)n2)c1"
assigned_category = "FALSE"

[[record]]
compound = "CCCCCCCN(CCCCCCC)C(=N)c1ccc(OC)c2ccccc12"
assigned_category = "TRUE"

[[record]]
compound = "O=C(CN1CCOCC1)Nc1ccc(-c2nc3ccccc3s2)cc1"
assigned_category = "FALSE"


# lookup: test call for CCN1C(=O)N(CC)C2C1NN=c1s/c(=C\c3cccc(F)c3)c(=O)n12 (stereo not drawn)
TRUE

# lookup: test call for `CCC1=C[C@@H]2CN(C1)Cc1c([nH]c3ccccc13)[C@@](C(=O)OC)(c1cc3c(cc1OC)N(C=O)[C@H]1[C@@](O)(C(=O)OC)[C@H](OC(C)=O)[C@]4(CC)[C@@H]5C[C@@H]5CN5CC[C@]31[C@@H]54)C2`
TRUE
